# Target Or System: T1, HLA-A2 / homologous peptide CD163 complex on T2 cells (human)
# T1 construct: whole, on cells; also called T2 cells supplemented with homologous peptide CD163
# Assay Text: flow cytometry on peptide-pulsed T2 cells, scFv 100 nM;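 note: scFv binding read as gMFI and normalized to the level of HLA/peptide complex displayed on T2 cells, with homologous 9-mer peptides used to probe specificity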
What standardized gMFI was measured for each of the following?
Answers are plain numbers.

| Binder | standardized gMFI |
| --- | --- |
| NYA-2047 (scFv) scFv: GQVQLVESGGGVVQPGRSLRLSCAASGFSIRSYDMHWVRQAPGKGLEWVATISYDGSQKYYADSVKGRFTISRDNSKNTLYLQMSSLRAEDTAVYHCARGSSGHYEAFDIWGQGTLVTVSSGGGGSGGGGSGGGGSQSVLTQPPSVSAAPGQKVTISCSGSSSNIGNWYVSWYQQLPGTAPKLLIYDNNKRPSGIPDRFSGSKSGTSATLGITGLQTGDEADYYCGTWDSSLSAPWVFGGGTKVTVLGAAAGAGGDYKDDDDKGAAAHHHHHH | 0.47 |

With those in mind, consider the next binder.
Given the binder NYA-2023 (scFv) scFv: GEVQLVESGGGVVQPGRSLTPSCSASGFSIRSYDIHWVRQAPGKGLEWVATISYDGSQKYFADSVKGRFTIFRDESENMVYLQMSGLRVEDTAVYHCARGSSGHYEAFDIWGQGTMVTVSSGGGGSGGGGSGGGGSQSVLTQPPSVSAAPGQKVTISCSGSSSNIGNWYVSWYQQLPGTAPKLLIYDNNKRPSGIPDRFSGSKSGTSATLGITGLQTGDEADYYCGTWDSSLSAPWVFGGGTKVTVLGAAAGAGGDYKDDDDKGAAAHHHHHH , what is its reported standardized gMFI?
0.48
